target: T1, polyclonal human IgG antibody (serum-derived) (human); test: SPR (BIAcore2000, 25 C), biotinylated peptide on SA chip, human IgG as analyte (41 to 660 nM)
T1 construct: also called hIgG
Positions of bridges follow the written chain, without caps; N, C: chain ends. No end group written: not given here. *: point of attachment. Biotin = O=C1N[C@H]2[C@H](CS[C@H]2CCCCC(=O)*)N1
Hi there, I'd appreciate the recorded pKd for every entry that follows.
Answers are plain numbers, as −log10 of the molar value.

[
  {
    "BINDER": "{Biotin-LC}-GCTGYWPKAWGLCG (disulfide 2-13 (inferred), also called biotinylated IMGpep-4) [synthetic peptide IMGpep-4]",
    "EXPERIMENTAL_VALUE": 7.55
  },
  {
    "BINDER": "GCTGYWPRAWGLCG (disulfide 2-13 (inferred); not fully specified (N-terminus), also called biotinylated IMGpep-4K6R) [synthetic peptide IMGpep-4K6R]",
    "EXPERIMENTAL_VALUE": 7.62
  },
  {
    "BINDER": "{Biotin-LC}-GCGYWRSEWGLCG (disulfide 2-12 (inferred), also called biotinylated IMGpep-1) [synthetic peptide IMGpep-1]",
    "EXPERIMENTAL_VALUE": 7.77
  }
]

Quick one: pKd for {Biotin-LC}-GCGYWRSQWGLCG (disulfide 2-12 (inferred), also called biotinylated IMGpep-1E6Q) [synthetic peptide IMGpep-1E6Q] ?
7.68

Values compiled from patent US20100297606A1.
